Measured pKd values are reported for all entries that follow.
Target: T1, human tenascin-C rCd4-His-FBG (rat; human, UniProt P05540 207-392, limits assumed)
T1 construct: domain: domains 3 and 4; C-terminal FBG fusion; biotinylated in the ELISA and HTRF screens; also called Hu TNC; human TNC rCd4-His-FBG; not shown: 6His tag
T1 sequence (chain (part 1 of 2)): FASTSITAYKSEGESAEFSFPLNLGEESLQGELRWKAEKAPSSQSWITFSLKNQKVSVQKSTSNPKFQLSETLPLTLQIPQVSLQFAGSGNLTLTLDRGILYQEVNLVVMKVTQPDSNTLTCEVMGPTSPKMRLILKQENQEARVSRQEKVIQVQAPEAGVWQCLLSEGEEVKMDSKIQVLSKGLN
T1 sequence (chain (part 2 of 2)): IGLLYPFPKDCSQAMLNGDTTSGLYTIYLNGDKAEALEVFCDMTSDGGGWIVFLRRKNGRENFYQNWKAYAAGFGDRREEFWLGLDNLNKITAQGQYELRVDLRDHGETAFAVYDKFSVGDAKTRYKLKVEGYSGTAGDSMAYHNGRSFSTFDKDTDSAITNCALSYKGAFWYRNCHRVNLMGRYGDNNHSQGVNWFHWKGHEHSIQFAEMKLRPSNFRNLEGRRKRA
Run description: SPR, captured Fab, 25 C
pKd: −log10 of the molar value.

>  <Binder>
Fab D8 (Fab, V domains shown, monomeric Fab) VH: EVQLVQSGAEVKKPGASVKVSCKASGYTFTSYGISWVRQAPGQGLEWMGWISAYNGNTNYAQKLQGRVTMTTDTSTSTAYMELRSLRSDDTAVYYCARNQDSSSDYWGQGTLVTVSS VL: DIQMTQSPASLPTSVGDRVTITCRASQYIQGFLNWYQQKPGKAPKLLIYDASNLETGVPSRFSGSGSGTDFTLTISSLQPEDFATYYCQQSYSTLQTFGQGTKVDIKR

>  <pKd>
8.07

$$$$
>  <Binder>
Fab 2A5 (Fab, V domains shown, monomeric Fab) VH: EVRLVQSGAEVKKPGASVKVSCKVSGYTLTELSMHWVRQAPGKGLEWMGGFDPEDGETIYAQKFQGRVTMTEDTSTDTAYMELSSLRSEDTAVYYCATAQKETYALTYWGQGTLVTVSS VL: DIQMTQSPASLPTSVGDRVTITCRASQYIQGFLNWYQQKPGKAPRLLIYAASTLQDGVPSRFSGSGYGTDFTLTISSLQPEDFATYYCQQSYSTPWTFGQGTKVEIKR

>  <pKd>
7.94

$$$$
>  <Binder>
Fab B12 (Fab, V domains shown, monomeric Fab) VH: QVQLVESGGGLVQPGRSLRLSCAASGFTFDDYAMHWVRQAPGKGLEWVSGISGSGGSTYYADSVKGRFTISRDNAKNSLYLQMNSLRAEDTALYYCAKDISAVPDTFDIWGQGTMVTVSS VL: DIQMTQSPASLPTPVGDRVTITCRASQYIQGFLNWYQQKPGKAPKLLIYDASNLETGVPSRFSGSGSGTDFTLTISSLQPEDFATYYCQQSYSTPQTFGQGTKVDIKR

>  <pKd>
9.95

$$$$
>  <Binder>
Fab F3 (Fab, V domains shown, monomeric Fab) VH: EVQLLESGGGLVQPGGSLRLSCAASGFTFSSYGMHWVRQAPGKGLEWVAVISYDGSNKYYADSVKGRFTISRGNSKNTLYLQMNSLKAEDTAVYYCAREGYDQLFSAESNAFDIWGQGTLVTVSS VL: NFMLAQPHSVSESPGKTVTISCTRSSGSIASYFVQWFQQRPGSAPTAVIYEDNQRPSGVPDRFSGSIDSSSNSASLTISGLKTEDEADYYCQSYDSSNWVFGGGTKVTVLG

>  <pKd>
7.56

$$$$
